# System: MDA-MB-435
# experiment.description: NCI tumour cell line growth inhibition, 48 h
Listed below: TGI values for each entry.

{"compound": "C=C(Cl)COC(=O)Nc1cccc(Cl)c1", "TGI": "> 100 µM"}
{"compound": "COC(=O)C1=COC(C)C2C[n+]3ccc4c([nH]c5ccccc54)c3CC12 (stereo not given)", "TGI": "> 100 µM"}
{"compound": "N#Cc1ccccc1NC(=O)/C(=N\\NC(=O)c1ccncc1)C(c1cnc2ccc([N+](=O)[O-])cc2n1)[N+](=O)[O-] (stereo not given)", "TGI": "> 100 µM"}
{"compound": "CN1c2ccccc2C(=O)NC12CCN(Cc1ccccc1)CC2", "TGI": "> 100 µM"}
{"compound": "Cc1ccc(S(=O)(=O)Nc2nc3ccccc3c(=O)n2C2CCCCC2)cc1", "TGI": "> 100 µM"}
{"compound": "[N-]=[N+]=C(C(=O)OCC#CCOC(=O)C(=[N+]=[N-])S(=O)(=O)c1ccccc1)S(=O)(=O)c1ccccc1", "TGI": "> 10 µM"}
{"compound": "Nc1ccccc1/C=C\\c1ccccc1", "TGI": "> 100 µM"}
{"compound": "N#CC1=C(N)OC2=C(COc3ccc(F)cc32)C1c1ccc(Cl)cc1 (stereo not given)", "TGI": "> 100 µM"}
{"compound": "Cc1ccccc1C(=O)C#Cc1cn(C2CC(O)C(CO)O2)c(=O)[nH]c1=O (stereo not given)", "TGI": "> 100 µM"}
{"compound": "Fc1ccc(Oc2nccc(-c3c(-c4ccc(F)cc4)ncn3C3CCNCC3)n2)cc1", "TGI": "> 25 µM"}
{"compound": "CCOC(=O)CN=C1Nc2ccccc2C(=O)N2CSCC12 (stereo not given)", "TGI": "> 100 µM"}
{"compound": "O=C(O)CCC(C(=O)O)N1C(=O)c2ccccc2C1=O (stereo not given)", "TGI": "> 100 µM"}
{"compound": "O=C1C=C(N2CCCC2)C(=O)c2c(O)ccc(O)c21", "TGI": "> 1 µM"}
{"compound": "O=C1c2cc([N+](=O)[O-])cnc2S(=O)(=O)N1c1ccc(Br)cc1", "TGI": "> 100 µM"}
{"compound": "N#CC(c1nc2ccccc2s1)c1nc(Cl)ncc1Br (stereo not given)", "TGI": "> 100 µM"}
{"compound": "S=c1nc(Oc2ccc(Cl)c(Cl)c2)[nH]c(=S)[nH]1", "TGI": "> 100 µM"}
{"compound": "CC(C)=CCC/C(=C\\CC/C(=C\\CCc1ccoc1)C(=O)O)C(=O)O", "TGI": "> 100 µM"}
{"compound": "CCOC(=O)CCCn1c(SC)nc2cc(-c3ccco3)[nH]c2c1=O", "TGI": "> 100 µM"}
{"compound": "CN(NC(=O)CC(=O)NN(C)C(=S)c1ccccc1)C(=S)c1ccccc1", "TGI": "> 100 µM"}
{"compound": "CCN(CC)c1ccc(/C=c2\\nc(-c3ccccc3)n3c2nc2ccccc23)cc1", "TGI": "48.8 µM"}
{"compound": "N#CCN1CCCCCc2ccccc21", "TGI": "> 100 µM"}
{"compound": "CC(=O)[C@H]1CC[C@H]2[C@@H]3CCC4=CC(=O)CC[C@]4(C)[C@H]3CC[C@]12C", "TGI": "39.3 µM"}
{"compound": "COC(=O)c1ccc(CCC2=CC(=O)C(Br)=CC2=O)cc1", "TGI": "31.2 µM"}
{"compound": "N#Cc1ccc(OC(=O)c2ccc(N=C(N)N)cc2)cc1", "TGI": "> 100 µM"}
{"compound": "C=C1CC[C@@]2(C#N)[C@H]3[C@H](CC[C@@H]2C)[C@@H](C)C[C@@H](CC(C)(C)C#N)[C@H]13", "TGI": "95.7 µM"}
{"compound": "Cc1ccc(C2(N3CCCC3)OC(C)(C)c3cccc4cccc2c34)cc1 (stereo not given)", "TGI": "28 µM"}
{"compound": "Nc1nc(Nc2ccc3c(c2)CC[C@@H](N2CCCC2)CC3)nn1-c1cc2c(nn1)-c1ccccc1CCC2", "TGI": "3.1 µM"}
{"compound": "CC1=NC2(CCCCC2)N(Cl)C(=O)C1SC#N (stereo not given)", "TGI": "37.7 µM"}
{"compound": "O=C1OC(C2Cc3ccccc3C2=O)c2ccccc21 (stereo not given)", "TGI": "> 100 µM"}
{"compound": "O=c1[nH]c(=S)c2cc3c(=S)[nH]c(=O)n(CCC(c4ccccc4)(c4ccccc4)c4ccccc4)c3nc2n1CCC(c1ccccc1)(c1ccccc1)c1ccccc1", "TGI": "> 100 µM"}
{"compound": "OCCN1CN(c2nc(N3CN(CCO)C3)nc(N3CN(CCO)C3)n2)C1", "TGI": "32.4 µM"}
{"compound": "C/C=C(\\C)C(=O)N[C@H]1[C@@H](OC(C)=O)C[C@]2(C)C3CC[C@@]4(C)C(CC[C@@H]4C(C)N(C)C)C3CCC2[C@H]1O (stereo not given in full)", "TGI": "6.78 µM"}
{"compound": "c1ccc2c(c1)nc1n2CCNC1", "TGI": "> 100 µM"}
{"compound": "O=c1[nH]nc(-c2ccc([N+](=O)[O-])cc2)n1/N=C/c1ccc([N+](=O)[O-])cc1", "TGI": "> 100 µM"}
{"compound": "COC(=O)c1c(O)ccc2c1c1c(n2Cc2ccc(OC)cc2)C(=O)c2ccccc2C1=O", "TGI": "22.3 µM"}

====

# System: M14 melanoma
# experiment.description: NCI tumour cell line growth inhibition, 48 h; in the data active = GI50 below about 0.43 µM; inactive = the rest
Possible outcomes: True = active, False = inactive

{"compound": "CCCCCCCCCNCCCCCCCCC", "assay.target": "M14 melanoma", "answer.label": "False"}
{"compound": "N#CC1=C(N)OC2=C(COc3ccc(F)cc32)C1c1ccc(Cl)cc1 (configuration not stated)", "assay.target": "M14 melanoma", "answer.label": "False"}
{"compound": "CC1(C)OC[C@@H]([C@@]2(CO[Si](C)(C)C(C)(C)C)CC=CC(=O)O2)O1", "assay.target": "M14 melanoma", "answer.label": "False"}
{"compound": "COc1c(C)c2c(c(O)c1C/C=C(\\C)CCC(=O)OCCN1CCOCC1)C(=O)OC2", "assay.target": "M14 melanoma", "answer.label": "True"}
{"compound": "CC(=O)Nc1nc(SCc2ccccc2)c2ncn(C(C)=O)c2n1", "assay.target": "M14 melanoma", "answer.label": "False"}
{"compound": "O=C1/C(=C/c2ccc(O)c([N+](=O)[O-])c2)CCC/C1=C\\c1ccc(O)c([N+](=O)[O-])c1", "assay.target": "M14 melanoma", "answer.label": "False"}
{"compound": "C=C1CC[C@@]2(C#N)[C@H]3[C@H](CC[C@@H]2C)[C@@H](C)C[C@@H](CC(C)(C)C#N)[C@H]13", "assay.target": "M14 melanoma", "answer.label": "False"}
{"compound": "CC(=O)C1CC2(c3ccc(C)cc3)C(c3ccc(C)cc3)=C(c3ccc(C)cc3)C1(c1ccc(C)cc1)S2=O (configuration not stated)", "assay.target": "M14 melanoma", "answer.label": "False"}
{"compound": "CC([C@H]1CCC2C3CCC4C[C@@H](NC=O)CC[C@]4(C)C3CC[C@@]21C)N(C)C (some centres not stated)", "assay.target": "M14 melanoma", "answer.label": "False"}
{"compound": "O=C(Nc1ccc(-n2cc(-c3ccncc3)c(-c3ccc(Cl)c(O)c3)n2)cc1)Nc1cc(C(F)(F)F)cc(C(F)(F)F)c1", "assay.target": "M14 melanoma", "answer.label": "False"}
{"compound": "COc1cc(Cl)cc(-c2nn(C(=O)NCCN3CCN(C)CC3)cc2-c2ccncc2)c1", "assay.target": "M14 melanoma", "answer.label": "False"}
{"compound": "COc1cc(NC(=O)c2cc(OC)c3ccn(C)c3c2)cc2c1C[C@]1(C)CC[C@@H](O)C(C)(C)[C@H]1O2", "assay.target": "M14 melanoma", "answer.label": "False"}

====

# Test system: SW-620 colon
# experiment.description: NCI tumour cell line growth inhibition, 48 h

{"compound": "CCC(C)NC(=S)N/N=C(\\C)c1ccccn1 (centres undefined)", "assay.target": "SW-620 colon", "TGI": "> 100 µM"}
{"compound": "Cc1ccc(S(=O)(=O)N(CC(O)c2ccccc2)c2ccccc2F)cc1 (centres undefined)", "assay.target": "SW-620 colon", "TGI": "39.9 µM"}
{"compound": "COc1cc(C(=O)O[C@H](C(=O)NCCNC(=O)[C@@H](OC(=O)c2cc(OC)cc3c(C)cccc23)[C@]2(C)CO2)[C@]2(C)CO2)c2cccc(C)c2c1", "assay.target": "SW-620 colon", "TGI": "> 100 µM"}
{"compound": "COC(=O)NC/C=C\\c1nc(CC/C=C\\C(=O)OC2CC3CC(=O)O[C@H](/C=C/CC(C)C)C[C@H]4CCC(C)C(C[C@H](OC)CC(C2)O3)O4)co1 (some centres undefined)", "assay.target": "SW-620 colon", "TGI": "> 100 µM"}
{"compound": "COc1ccc(C(=O)C(c2ccc(OC)cc2)C2(O)C(=O)Nc3c(C)cc(Cl)cc32)cc1 (centres undefined)", "assay.target": "SW-620 colon", "TGI": "> 100 µM"}
{"compound": "Cn1nc(-c2ccccc2)c(N=[N+]=[N-])cc1=O", "assay.target": "SW-620 colon", "TGI": "> 100 µM"}
{"compound": "O=c1[nH]c2nccnc2c2c([N+](=O)[O-])cccc12", "assay.target": "SW-620 colon", "TGI": "> 100 µM"}
{"compound": "c1ccc2c(c1)CCN(C1=NCCO1)C2", "assay.target": "SW-620 colon", "TGI": "> 10 µM"}
{"compound": "CCn1nc(-c2ccccc2)c2c1N(C)c1ccccc1-n1c(-c3ccccc3)nnc1-2", "assay.target": "SW-620 colon", "TGI": "29.6 µM"}
